Origin of values: patent US20060074243A1

target: Human recombinant MMP-14 (Homo sapiens); construct: The catalytic domain enzyme was expressed in E. coli inclusion bodies, solubilized in urea; made in house; assay: In vitro MMP inhibition analysis (fluorogenic peptide substrate cleavage), Ki; format: biochemical; settings: Table 2
READOUT: Ki (nM)

Q: Which Ki reading was recorded for the compound CO[C@H]1CC[C@](C(=O)NO)(S(=O)(=O)c2ccc(-c3cnc(CCC(F)(F)C(F)(F)F)cn3)cc2)CC1 ?
Ans: 798

Q: Value lookup for Ki; key = O=C(NO)C1(S(=O)(=O)c2ccc(-c3ccc(CCC(F)(F)C(F)(F)F)cc3)cc2)CCS(=O)(=O)CC1
Ans: 3590

Q: Dear colleague, I am looking for the recorded Ki of the following compound: CCN1CCC(C(=O)NO)(S(=O)(=O)c2ccc(-c3noc(-c4ccncc4)n3)cc2)CC1
Ans: 1020

1. COCCN1CCC(C(=O)NO)(S(=O)(=O)c2ccc(-c3cnc(OCC(F)(F)C(F)(F)F)cn3)cc2)CC1
2. O=C(NCC(F)(F)C(F)(F)F)c1cnc(-c2ccc(S(=O)(=O)C3(C(=O)NO)CCOCC3)cc2)cn1
Q: Which shows the larger Ki value: 1 or 2 ? Label of pick, please.
Ans: 2
(2: 5920 nM, 1: 1220 nM)
